Target: HDAC3 (Homo sapiens, UniProt O15379)
Construct: endogenous in cells; host or cells: HCT116 (ATCC CCL-247)
Sequence (O15379 whole entry): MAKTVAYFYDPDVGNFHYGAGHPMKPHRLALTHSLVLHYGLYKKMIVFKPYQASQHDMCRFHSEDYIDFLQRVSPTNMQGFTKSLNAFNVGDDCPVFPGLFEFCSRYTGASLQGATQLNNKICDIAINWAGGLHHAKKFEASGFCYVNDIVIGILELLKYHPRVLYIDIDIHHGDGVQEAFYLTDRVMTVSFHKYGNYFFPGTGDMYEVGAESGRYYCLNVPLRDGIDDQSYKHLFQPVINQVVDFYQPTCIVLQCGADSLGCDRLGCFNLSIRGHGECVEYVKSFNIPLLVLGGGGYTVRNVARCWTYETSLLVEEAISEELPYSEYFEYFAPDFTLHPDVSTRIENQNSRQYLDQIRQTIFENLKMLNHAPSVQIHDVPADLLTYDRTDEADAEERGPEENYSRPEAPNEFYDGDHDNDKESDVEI
Sequence (Q9Y618 whole entry partner): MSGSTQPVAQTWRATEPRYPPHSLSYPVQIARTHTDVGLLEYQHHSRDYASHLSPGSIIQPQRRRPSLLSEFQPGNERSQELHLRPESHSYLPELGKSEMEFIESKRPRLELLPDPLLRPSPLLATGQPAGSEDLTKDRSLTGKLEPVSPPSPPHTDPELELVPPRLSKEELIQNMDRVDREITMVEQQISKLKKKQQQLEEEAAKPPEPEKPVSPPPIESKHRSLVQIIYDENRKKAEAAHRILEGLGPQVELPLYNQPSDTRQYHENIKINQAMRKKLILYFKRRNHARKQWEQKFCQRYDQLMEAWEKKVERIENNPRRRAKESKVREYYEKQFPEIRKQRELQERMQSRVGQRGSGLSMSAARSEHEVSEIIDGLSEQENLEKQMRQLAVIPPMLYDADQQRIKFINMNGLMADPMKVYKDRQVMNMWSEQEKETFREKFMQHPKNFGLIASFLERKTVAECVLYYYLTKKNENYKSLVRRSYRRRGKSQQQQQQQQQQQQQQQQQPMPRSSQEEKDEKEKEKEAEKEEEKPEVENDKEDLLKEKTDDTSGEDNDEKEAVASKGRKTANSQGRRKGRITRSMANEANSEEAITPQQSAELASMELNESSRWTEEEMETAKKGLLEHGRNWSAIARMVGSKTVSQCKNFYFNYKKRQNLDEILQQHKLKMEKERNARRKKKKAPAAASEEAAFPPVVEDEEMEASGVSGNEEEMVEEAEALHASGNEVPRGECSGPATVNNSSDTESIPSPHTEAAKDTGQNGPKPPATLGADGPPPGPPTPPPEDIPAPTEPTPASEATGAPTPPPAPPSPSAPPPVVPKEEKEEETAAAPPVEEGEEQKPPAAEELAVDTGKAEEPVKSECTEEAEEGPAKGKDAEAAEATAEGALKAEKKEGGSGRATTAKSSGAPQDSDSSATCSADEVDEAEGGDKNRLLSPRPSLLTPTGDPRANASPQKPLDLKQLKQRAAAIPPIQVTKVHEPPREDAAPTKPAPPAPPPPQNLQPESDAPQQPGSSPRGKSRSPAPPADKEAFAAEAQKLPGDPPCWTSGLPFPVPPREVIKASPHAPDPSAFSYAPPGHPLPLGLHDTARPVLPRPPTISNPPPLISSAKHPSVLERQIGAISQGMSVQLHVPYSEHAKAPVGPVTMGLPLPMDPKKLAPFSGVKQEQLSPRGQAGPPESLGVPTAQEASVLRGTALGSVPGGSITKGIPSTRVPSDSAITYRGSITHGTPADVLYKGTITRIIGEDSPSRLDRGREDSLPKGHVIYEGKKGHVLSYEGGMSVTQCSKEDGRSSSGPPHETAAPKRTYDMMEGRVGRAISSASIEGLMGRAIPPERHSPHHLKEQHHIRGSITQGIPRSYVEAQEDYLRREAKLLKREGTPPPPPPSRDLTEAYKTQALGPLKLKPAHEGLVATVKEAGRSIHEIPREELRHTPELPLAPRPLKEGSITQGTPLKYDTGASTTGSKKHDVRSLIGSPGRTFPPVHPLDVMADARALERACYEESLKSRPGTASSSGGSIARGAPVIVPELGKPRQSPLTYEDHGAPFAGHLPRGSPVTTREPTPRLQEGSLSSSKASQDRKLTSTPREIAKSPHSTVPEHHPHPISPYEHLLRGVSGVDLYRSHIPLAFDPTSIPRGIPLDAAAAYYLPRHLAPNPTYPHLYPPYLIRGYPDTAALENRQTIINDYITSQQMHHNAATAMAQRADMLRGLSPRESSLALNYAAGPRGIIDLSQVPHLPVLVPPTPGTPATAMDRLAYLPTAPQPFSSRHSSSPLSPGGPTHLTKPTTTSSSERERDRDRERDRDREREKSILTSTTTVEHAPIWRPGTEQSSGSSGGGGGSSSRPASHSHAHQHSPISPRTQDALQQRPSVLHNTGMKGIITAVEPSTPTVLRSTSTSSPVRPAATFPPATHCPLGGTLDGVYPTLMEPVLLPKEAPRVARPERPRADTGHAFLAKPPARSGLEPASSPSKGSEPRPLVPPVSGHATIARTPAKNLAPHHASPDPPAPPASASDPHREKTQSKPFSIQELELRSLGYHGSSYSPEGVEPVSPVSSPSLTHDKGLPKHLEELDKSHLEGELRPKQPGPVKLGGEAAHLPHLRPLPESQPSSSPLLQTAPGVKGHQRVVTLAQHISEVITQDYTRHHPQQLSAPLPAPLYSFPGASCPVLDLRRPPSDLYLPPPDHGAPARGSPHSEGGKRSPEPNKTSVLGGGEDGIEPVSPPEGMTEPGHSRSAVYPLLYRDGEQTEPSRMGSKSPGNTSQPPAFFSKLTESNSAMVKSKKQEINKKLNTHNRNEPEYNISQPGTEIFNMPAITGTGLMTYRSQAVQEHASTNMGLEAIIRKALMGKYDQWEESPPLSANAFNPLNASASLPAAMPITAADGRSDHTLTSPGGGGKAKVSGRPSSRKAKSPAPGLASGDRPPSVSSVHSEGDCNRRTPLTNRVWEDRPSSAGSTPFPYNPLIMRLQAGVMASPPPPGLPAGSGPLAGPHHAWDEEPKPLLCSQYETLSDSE
Experiment: HDAC3 abundance by quantitative fluorescence western blotting in HCT116 cells
Assay type: cell-based
Details: initial screen, 24 hours

compound	HDAC3 abundance / degradation
Nc1ccc(-c2ccc(F)cc2)cc1NC(=O)c1cnc(N2CCN(CCCCCCNc3cccc4c3C(=O)N(C3CCC(=O)NC3=O)C4=O)CC2)cn1 (stereo not shown)	no effects
Nc1ccc(-c2ccc(F)cc2)cc1NC(=O)c1cnc(N2CCN(C(=O)CCCCCNc3cccc4c3C(=O)N(C3CCC(=O)NC3=O)C4=O)CC2)cn1 (stereo not shown)	no HDAC3 degradation
Nc1ccc(-c2ccc(F)cc2)cc1NC(=O)c1cnc(N2CCN(C(=O)CCC3CCN(c4cccc5c4C(=O)N(C4CCC(=O)NC4=O)C5=O)CC3)CC2)cn1 (stereo not shown)	no HDAC3 degradation
Nc1ccccc1NC(=O)c1cnc(N2CCN(C(=O)CCCCCCCC(=O)NCCNc3cccc4c3C(=O)N(C3CCC(=O)NC3=O)C4=O)CC2)cn1 (stereo not shown)	no effects

---

Biological target: HDAC1 (Homo sapiens)
Construct: endogenous in cells; host or cells: HCT116 (ATCC CCL-247)
Sequence (Q13547 whole entry): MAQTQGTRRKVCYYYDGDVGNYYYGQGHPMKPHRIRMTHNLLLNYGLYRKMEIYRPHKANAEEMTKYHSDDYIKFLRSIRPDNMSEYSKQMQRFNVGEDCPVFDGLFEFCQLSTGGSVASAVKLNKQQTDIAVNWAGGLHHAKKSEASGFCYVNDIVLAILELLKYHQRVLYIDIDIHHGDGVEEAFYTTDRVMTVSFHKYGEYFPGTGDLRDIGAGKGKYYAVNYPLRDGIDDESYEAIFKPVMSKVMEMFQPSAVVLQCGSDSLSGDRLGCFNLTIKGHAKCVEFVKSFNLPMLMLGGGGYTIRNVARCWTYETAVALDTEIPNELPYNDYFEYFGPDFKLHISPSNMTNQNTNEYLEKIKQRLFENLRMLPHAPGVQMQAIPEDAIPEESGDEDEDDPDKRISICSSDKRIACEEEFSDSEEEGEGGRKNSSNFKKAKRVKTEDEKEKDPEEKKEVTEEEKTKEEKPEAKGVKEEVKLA
Assay: HDAC1 abundance by quantitative fluorescence western blotting in HCT116 cells
Type: cell-based
Details: initial screen, 24 hours
assay metric: HDAC1 abundance / degradation

molecule	val
Nc1ccccc1NC(=O)c1cnc(N2CCN(C(=O)CCCCCCCC(=O)NCCNc3cccc4c3C(=O)N(C3CCC(=O)NC3=O)C4=O)CC2)cn1 (stereo not shown)	no effects
Nc1ccc(-c2ccc(F)cc2)cc1NC(=O)c1cnc(N2CCN(CCCCCCNc3cccc4c3C(=O)N(C3CCC(=O)NC3=O)C4=O)CC2)cn1 (stereo not shown)	no effects
